- System: L1210
- RUN_DESCRIPTION: Cytotoxicity against mouse L1210 cells
- Assay type: functional, cell-based
For each entry below, report its pIC50 value.
Answers are plain numbers, as −log10 of the molar value.

Examples with answers:
Q) Bench note: what pIC50 did `CC(C)=CC(=O)O[C@@H]1CC(C)(C)C[C@@H]2C3=CC[C@@H]4[C@@]5(C)CCC(=O)C(C)(C)[C@@H]5CC[C@@]4(C)[C@]3(C)CC[C@]21C(=O)O` show?
A) 4.79

Q) Return reported pIC50; argument: `C/C=C(/C)C(=O)O[C@@H]1CC(C)(C)C[C@H]2C3=CC[C@@H]4[C@@]5(C)CCC(=O)C(C)(C)[C@@H]5CC[C@@]4(C)[C@]3(C)CC[C@@]12C(=O)O`
A) 4.79

Respectfully, I request pIC50 for each entry included below.
1. C/C=C(/C)C(=O)O[C@@H]1CC(C)(C)C[C@@H]2C3=CC[C@@H]4[C@@]5(C)CCC(=O)[C@](C)(CO)[C@@H]5CC[C@@]4(C)[C@]3(C)CC[C@]21C(=O)O
2. CC(C)=CC(=O)O[C@@H]1CC(C)(C)C[C@@H]2C3=CC[C@@H]4[C@@]5(C)CCC(=O)[C@](C)(CO)[C@@H]5CC[C@@]4(C)[C@]3(C)CC[C@]21C(=O)O

A)
1. 5.17
2. 4.91
